Test system: HEK293 cells
Assay: Preliminary screening as DNA vectors, GFP transfection of HEK293 cells
Format: cell-based
Conditions: amino lipid/DOPE liposome with 75 ng plasmid DNA (psin-EGFP-IRES-Puro); number of GFP-expressing cells divided by total nuclei (Hoechst)
API: label(entry) gives 1 if the entry's Absolute DNA transfection efficiency in HEK293 cells is strictly smaller than 3%; on equality or larger values it gives 0.

Previously resolved entries follow.
INSERT INTO assay_data (compound, classification) VALUES
  ('CCCCCCCCCCCCCCCCCCSc1nc(NCCN2CCN(C)CC2)nc(SCCCCCC)n1 [S6S18 D5]', 0),
  ('CCCCCCCCCCCCCCCCCCNc1nc(NCCN2CCCCC2)nc(SCCCCCCC)n1 [S7N18 D4]', 0),
  ('CCCCCCCCCCCCCCCSc1nc(NCCCCCCCCCCC)nc(NCC2CCN(C)CC2)n1 [S15N11 D10]', 0),
  ('CCCCCCCCCSc1nc(NCCCCCCC)nc(NCCCN(C)C)n1 [S9N7 D6]', 0),
  ('CCCCCCCCCCCCCCSc1nc(NCCN(C)C)nc(SCCCCCCC)n1 [S7S14 D1]', 0);

Could you please tell me whether Absolute DNA transfection efficiency in HEK293 cells recorded for CCCCCCCCCCCCCCCCCCNc1nc(NCCN(C)C)nc(SCCCCCCCCCCCCCCCC)n1 [S16N18 D1] is less than 3%?
1

Could you please tell me whether Absolute DNA transfection efficiency in HEK293 cells recorded for CCCCCCCCCCCCCCCCCCNc1nc(NCCCN2CCOCC2)nc(SCCCCCCCCCC)n1 [S10N18 D8] is less than 3%?
1

Could you please tell me whether Absolute DNA transfection efficiency in HEK293 cells recorded for CCCCCCCCCCCCN(CCCCCCCCCCCC)c1nc(NCCCN(C)C)nc(SCCCCCC)n1 [S6^2N12 D6] is less than 3%?
1

Could you please tell me whether Absolute DNA transfection efficiency in HEK293 cells recorded for CCCCCCCCCCCCCCCNc1nc(NCC2CCN(C)CC2)nc(SCCCCCC)n1 [S6N15 D10] is less than 3%?
0

Could you please tell me whether Absolute DNA transfection efficiency in HEK293 cells recorded for CCCCCCCCCCCCNc1nc(NCCCN(C)C)nc(SCCCCCCC)n1 [S7N12 D6] is less than 3%?
0

* * *

System: HEK293 cells
Test: Preliminary screening as DNA vectors, GFP transfection of HEK293 cells
Format: cell-based
Conditions: amino lipid/DOPE liposome with 75 ng plasmid DNA (psin-EGFP-IRES-Puro); number of GFP-expressing cells divided by total nuclei (Hoechst)
API: label(entry) gives Yes if the entry's Absolute DNA transfection efficiency in HEK293 cells is strictly smaller than 4%; on equality or larger values it gives No.

Previously resolved entries follow.
INSERT INTO results (molecule, measured_on, classification) VALUES
  ('CCCCCCCCCCCCCCCNc1nc(NCCN(C)C)nc(SCCCCCCCC)n1 [S8N15 D1]', 'HEK293 cells', 'No'),
  ('CCCCCCCCCCCCCCCCCCSc1nc(NCCCCCCCCCCCCC)nc(NCCN2CCN(C)CC2)n1 [S18N13 D5]', 'HEK293 cells', 'Yes'),
  ('CCCCCCCCCCCCSc1nc(NCCCCCC)nc(NCCN2CCCCC2)n1 [S12N6 D4]', 'HEK293 cells', 'Yes'),
  ('CCCCCCCCCNc1nc(NCCCN2CCOCC2)nc(SCCCCCCC)n1 [S7N9 D8]', 'HEK293 cells', 'No'),
  ('CCCCCCCCSc1nc(NCCCN(C)C)nc(SCCCCCC)n1 [S6S8 D6]', 'HEK293 cells', 'No'),
  ('CCCCCCCSc1nc(NCCN(C)C)nc(SCCCCCC)n1 [S6S7 D1]', 'HEK293 cells', 'Yes');

Could you please tell me whether Absolute DNA transfection efficiency in HEK293 cells recorded for CCCCCCCCCCCCCCCCCCNc1nc(NCCCN2CCN(C)CC2)nc(SCCCCCCC)n1 [S7N18 D9] is less than 4%?
No

Could you please tell me whether Absolute DNA transfection efficiency in HEK293 cells recorded for CCCCCCCCCCCCN(CCCCCCCCCCCC)c1nc(NCCN2CCCC2)nc(SCCCCCCCCCCC)n1 [S11^2N12 D3] is less than 4%?
Yes

Could you please tell me whether Absolute DNA transfection efficiency in HEK293 cells recorded for CCCCCCCCCCCCN(CCCCCCCCCCCC)c1nc(NCCN2CCCC2)nc(SCCCCCCC)n1 [S7^2N12 D3] is less than 4%?
Yes
